Parameter pKi: see the listing below.
target: Glutamate NMDA receptor
run_description: Compound was tested for its ability to displace [3H]glycine from glycine site on the N-methyl-D-aspartate glutamate receptor
pKi (log units): -log10 of the concentration in mol/L.

- line_notation: "O=[N+]([O-])c1cc2nc(O)c3nncn3c2cc1[N+](=O)[O-]"
  metric: "pKi"
  measurement: 5.29

Now consider a different compound.
The compound listed as `O=c1[nH]c2cc([N+](=O)[O-])c([N+](=O)[O-])cc2[nH]c1=O` has a reported pKi of 6.41

---

Parameter log10 Ki: see the listing below.
target: Glutamate receptor ionotropic, NMDA 1 (Rattus norvegicus, UniProt P35439)
run_description: Displacement of [3H]glycine from glycine site on the NMDA receptor.
Scale: decimal log of Ki, Ki in µM.

Guide cases for log10 Ki, answers given:
- compound: "Oc1nc2cc(Cl)c(Cl)cc2nc1O [2,3-DIHYDROXY-6,7-DICHLOROQUINOXALINE]"
  metric: "log10 Ki"
  measurement: -0.68
- compound: "CCc1nnc2c(O)nc3cc(Cl)c(Cl)cc3n12"
  metric: "log10 Ki"
  measurement: 0.66
- compound: "Oc1nc2cc(Cl)c(Cl)cc2n2ccnc12"
  metric: "log10 Ki"
  measurement: 0.10

The compound listed as `CCCCc1nnc2c(=O)[nH]c3cc(Cl)c(Cl)cc3n12` has a reported log10 Ki of 0.17

The compound listed as `Oc1nc2cc(Cl)cc(Cl)c2n2cnnc12` has a reported log10 Ki of 0.45
